- Method: amyloid nucleation score (Sup35N fusion, yeast selection) (log enrichment); library NNK1; higher = more nucleation; inactive = no reads after selection;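 note: zero at mode of non-aggregating sequences after 7 days selection at 30°C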
Metric name: amyloid nucleation score

Substance	Metric name	Result value
MMLRLRT	amyloid nucleation score	inactive
FNLNNGIR	amyloid nucleation score	inactive
RVAYSGEL	amyloid nucleation score	0.196

----------
- Method: amyloid nucleation score (Sup35N fusion, yeast selection) (log enrichment); library NNK1; higher = more nucleation; inactive = no reads after selection
Returns one of true (1) or false (0); true (1) when amyloid nucleation score is >= 0.4.

Known results for substances:
Substance	Category label
VCFEVWSGHFSASLTM	true (1)
RLYSYVFSGSPHIGWHLCSM	true (1)
GWKVCN	false (0)
MLNINVTYGFGDLREWNRIF	true (1)
RLFITCRAL	true (1)
NAGMSLRTFSLYSSWLIVPV	false (0)

// next entry
Hi team, for `SCGLTCDAEYGRGFPGLCMM` , is the recorded amyloid nucleation score at or above 0.4?
false (0)
